Data provenance is patent US20200385371A1.

Consider molecules characterized by their IC50 with WDR5 (Homo sapiens, UniProt P61964).
Answer shape: numeric part, then the unit.

Below, 5 molecules whose answers are already recorded.
molecule	IC50
C[C@@H]1CN(c2cc(F)c(C3=CCCN(c4ncccn4)C3)c(F)c2NC(=O)c2c[nH]c(=O)cc2C(F)(F)F)C[C@H](C)N1C [Example 15]	0.0211 µM
C[C@H]1CN(c2cc(F)c(-c3ccc4c(c3)OCCO4)c(F)c2NC(=O)c2c[nH]c(=O)cc2C(F)(F)F)CCN1C [Example 185]	0.0265 µM
C[C@@H]1CN(c2cc(F)c(C3=CCN(c4ncc(C#N)s4)C3)c(F)c2NC(=O)c2c[nH]c(=O)cc2C(F)(F)F)C[C@H](C)N1C [Example 150]	0.0129 µM
C[C@@H]1CN(c2cc(F)c(C3=CCCN(c4ncc(F)cn4)C3)c(F)c2NC(=O)c2c[nH]c(=O)cc2C(F)(F)F)C[C@H](C)N1C [Example 146]	0.021 µM
Cc1sc(-c2c(F)cc(N3CCN(C)[C@@H](C)C3)c(NC(=O)c3ccc(F)cc3C(F)(F)F)c2F)nc1C(=O)N1CCCC1 [Example 154]	0.0114 µM

Here's the next entry for you.
Ask: Any idea what IC50 was measured for C[C@H]1CN(c2ncc(-c3c(F)cc(N4CCN(C)[C@@H](C)C4)c(NC(=O)c4cn(C)c(=O)cc4C(F)F)c3F)cn2)C[C@H](C)O1 [Example 160] ?
Reply: 0.014 µM

* * *

Test system: MV4-11 cells
Experiment: Cell proliferation assay (ATPlite)
Assay type: cell-based
Details: Homo sapiens, 120 h; MV4-11 cells, five days; read-out: GI MV411 EC50
experimental-readout: pEC50
Give bare numbers, as −log10 of the molar value.

Consider the following items and state reported pEC50 for each.
1. C[C@H]1CN(c2cc(F)c(C3=CCN(c4ncc(F)cn4)C3)c(F)c2NC(=O)c2c[nH]c(=O)cc2C(F)(F)F)CCN1C [Example 80]
2. C[C@@H]1CN(c2cc(F)c(-c3cnc(N4CCOCC4)nc3)c(F)c2NC(=O)c2ccc(F)cc2C(F)F)C[C@H](C)N1C [Example 31]
3. C[C@H]1CN(c2ccc(-c3c(F)cc(N4CCN(C)[C@@H](C)C4)c(NC(=O)c4c[nH]c(=O)cc4C(F)F)c3F)cn2)CCO1 [Example 183]

Reply:
[7.23, 7.02, 7.61]

* * *

Target: WDR5 (Homo sapiens)
Test: Surface Plasmon Resonance (SPR) assay
Assay type: binding
Set-up: Full length WDR5 with an N-terminal His tag and C-terminal AviTag; His tag (N); made in house; host or cells: E. coli
Details: read-out: SPR Kd
Answer each item with its documented Kd.
Give bare numbers, in nM.

Below, 2 compounds whose answers are already recorded.
compound	Kd (nM)
C[C@@H]1CN(c2cc(F)c(C3=CCN(c4ncc(F)cn4)C3)c(F)c2NC(=O)c2c[nH]c(=O)cc2C(F)(F)F)C[C@H](C)N1C [Example 147]	0.71
C[C@H]1CN(c2ncc(-c3c(F)cc(N4CCN(C)[C@@H](C)C4)c(NC(=O)c4cn(C)c(=O)cc4C(F)F)c3F)cn2)C[C@H](C)O1 [Example 160]	1.36

Here's the next entry for you.
Ask: Short answer please: Kd, WDR5 (Homo sapiens), entry C[C@H]1CN(c2cc(F)c(C3=CCCN(c4ccnc(C#N)n4)C3)c(F)c2NC(=O)c2c[nH]c(=O)cc2C(F)(F)F)CCN1C [Example 114]
Reply: 2.42

* * *

Target: WDR5 (Homo sapiens, UniProt P61964)
Assay: Surface Plasmon Resonance (SPR) assay
Type: binding
Parameters: Full length WDR5 with an N-terminal His tag and C-terminal AviTag; His tag (N); made in house; host or cells: E. coli
Conditions: read-out: SPR Kd
Where a name gives a salt, the structure may show the parent alone.
Answer each item with its documented Kd.
Answers are plain numbers, in nM.

compound	experimental-system	numeric-readout
C[C@H]1CN(c2cc(F)c(C3=CCN(C(=O)OC4CC(F)(F)C4)C3)c(F)c2NC(=O)c2c[nH]c(=O)cc2C(F)F)CCN1C [Example 44]	WDR5 (Homo sapiens, UniProt P61964)	2.32
C[C@H]1CN(c2ncc(-c3c(F)cc(N4CCN(C)[C@@H](C)C4)c(NC(=O)c4ccc(F)cc4C(F)(F)F)c3F)cn2)C[C@H](C)O1 [Example 166, Formic Acid Salt]	WDR5 (Homo sapiens, UniProt P61964)	0.73
C[C@@H]1CN(c2ncc(-c3c(F)cc(N4C[C@@H](C)N(C)[C@@H](C)C4)c(NC(=O)c4ccc(F)cc4C(F)(F)F)c3F)cn2)CCO1 [Example 18, formic acid]	WDR5 (Homo sapiens, UniProt P61964)	1.71
C[C@@H]1CN(c2cc(F)c(-c3ccc(N4CCOCC4)nc3)c(F)c2NC(=O)c2c[nH]c(=O)cc2C(F)(F)F)C[C@H](C)N1C [Example 4]	WDR5 (Homo sapiens, UniProt P61964)	2.02

Consider the following items and state reported Kd for each.
1. C[C@@H]1CN(c2nccc(-c3c(F)cc(N4CCN(C)[C@@H](C)C4)c(NC(=O)c4cn(C)c(=O)cc4C(F)(F)F)c3F)n2)C[C@H](C)O1 [Example 56]
2. C[C@@H]1CN(c2cc(F)c(-c3cnc(N4CCOCC4)c(C#N)c3)c(F)c2NC(=O)c2c[nH]c(=O)cc2C(F)(F)F)C[C@H](C)N1C [Example 64]
3. CC(C)[C@@H]1CN(c2nccc(-c3c(F)cc(N4CCN(C)[C@@H](C)C4)c(NC(=O)c4c[nH]c(=O)cc4C(F)(F)F)c3F)n2)CCO1 [Example 123]
4. C[C@H]1CN(c2cc(F)c(C3=CCN(c4ncc(C#N)s4)CC3)c(F)c2NC(=O)c2c[nH]c(=O)cc2C(F)(F)F)CCN1C [Example 98]
5. C[C@@H]1CN(c2cc(F)c(-c3cnc(N4CCC(F)(F)CC4)nc3)c(F)c2NC(=O)c2c[nH]c(=O)cc2C(F)(F)F)C[C@H](C)N1C [Example 61]

Reply:
1: 9.79; 2: 2.48; 3: 1.68; 4: 0.77; 5: 1.26

* * *

Biological target: WDR5 (Homo sapiens)
Assay: Surface Plasmon Resonance (SPR) assay
Assay type: binding
Parameters: Full length WDR5 with an N-terminal His tag and C-terminal AviTag; His tag (N); made in house; host or cells: E. coli
Details: read-out: SPR Kd
experimental-readout: pKd
Give bare numbers, as −log10 of the molar value.

Below, 3 compounds whose answers are already recorded.
smiles-notation	pKd
C[C@H]1CN(c2cc(F)c(C3=CCCN(c4ncc(F)cn4)C3)c(F)c2NC(=O)c2c[nH]c(=O)cc2C(F)F)CCN1C	8.94
C[C@H]1CN(c2cc(F)c(C3=CCN(c4ncc(C#N)s4)C3)c(F)c2NC(=O)c2c[nH]c(=O)cc2C(F)F)CCN1C	9.10
C[C@H]1CN(c2cc(F)c(C3=CCCN(C(=O)OC4CC(F)(F)C4)C3)c(F)c2NC(=O)c2c[nH]c(=O)cc2C(F)(F)F)CCN1C	8.53

Consider the following items and state reported pKd for each.
1. CC(C)[C@@H]1CN(c2ncc(-c3c(F)cc(N4C[C@@H](C)N(C)[C@@H](C)C4)c(NC(=O)c4c[nH]c(=O)cc4C(F)F)c3F)cn2)CCO1
2. C[C@@H]1CN(c2cc(F)c(-c3ccc4c(c3)OCO4)c(F)c2NC(=O)c2c[nH]c(=O)cc2C(F)(F)F)C[C@H](C)N1C

Reply:
1: 9.02; 2: 8.78

Consider the following items and state reported pKd for each.
1. C[C@@H]1CN(c2cc(F)c(C3=CCCN(C(=O)c4csc(CN(C)C)n4)C3)c(F)c2NC(=O)c2c[nH]c(=O)cc2C(F)(F)F)C[C@H](C)N1C
2. C[C@@H]1CN(c2cc(F)c(-c3cnc(N4CCOCC4)nc3)c(F)c2NC(=O)c2cn(C)c(=O)cc2C(F)F)C[C@H](C)N1C
3. C[C@@H]1CN(c2cc(F)c(C3=CCCN(C(=O)OC4(C)CCC4)C3)c(F)c2NC(=O)c2c[nH]c(=O)cc2C(F)(F)F)C[C@H](C)N1C
4. C[C@@H]1CN(c2ccc(-c3c(F)cc(N4CCN(C)[C@@H](C)C4)c(NC(=O)c4ccc(F)cc4C(F)F)c3F)cn2)CCO1

Reply:
8.82
8.55
8.73
8.76

Consider the following items and state reported pKd for each.
1. C[C@H]1CN(c2ccc(-c3c(F)cc(N4CCN(C)[C@@H](C)C4)c(NC(=O)c4c[nH]c(=O)cc4C(F)F)c3F)cn2)CCO1
2. CC(C)[C@@H]1CN(c2ncc(-c3c(F)cc(N4CCN(C)[C@@H](C)C4)c(NC(=O)c4c[nH]c(=O)cc4C(F)(F)F)c3F)cn2)CCO1
3. C[C@H]1CN(c2cc(F)c(C3=CCCN(c4ncc(C#N)s4)C3)c(F)c2NC(=O)c2c[nH]c(=O)cc2C(F)F)CCN1C

Reply:
1. 8.87
2. 8.65
3. 8.79
